tested on: KM-20L2; assay: NCI tumour cell line growth inhibition, 48 h
Activity calls are given as the source filed them. Rule as the data show it: active = GI50 up to about 1.1 µM and inactive = higher.
Lab note: assign the record to one of active, inactive

Consider the worked cases shown below.
1) CCCCCCCCCCCCCC(=O)O[C@H]1CC[C@H](NC(=O)[C@H](OC)[C@H](O)[C@@H](O)[C@H](O)/C=C/C(C)C)C(=O)N(C)C1 [BENGAMIDE B] = active
2) N#CC(C(=N/O)/C(=N\O)C(C#N)c1ccccc1)c1ccccc1 (centres undefined) = inactive
3) O=C(CC(=O)c1cccc([N+](=O)[O-])c1)C(=O)Nc1ccccc1 = inactive

Moving on to the next molecule.
(Q) What classification did COc1ccccc1C(=O)N(Cc1ccccc1)c1ccc(Cl)c(C(=O)OC(C)C)c1 end up with in this test?
(A) inactive

----------
test system: MCF7; assay: NCI tumour cell line growth inhibition, 48 h
Calls of active or inactive are those of the source. Cut-off read from the data, not from the text of the source: active = GI50 up to about 1.1 µM and inactive = higher.
property: GI50

Example entries and their recorded answers appear below.
1) OCCOCn1nncc1Cn1ncc2c(O)ncnc21 = 48.8 µM (inactive)
2) NC(=O)CN1CC(C2=C(O)CN(CC(N)=O)C2=O)=CC1=O = > 100 µM (inactive)
3) COC1(OC)CC(CO)(CNc2nc(N)nc(Cl)c2/C=N\O)C1 = 24.1 µM (inactive)

(Q) For COc1c(O)cc2c3c(ccnc13)NC=C2 , what is its reported GI50?
(A) 26.7 µM (inactive)

(Q) Ok, now CC(=O)Nc1ccc2c(c1)[nH]c(=O)c1cc(Cl)ccc12
(A) 4.48 µM (inactive)

----------
test system: HCT-116; test: NCI tumour cell line growth inhibition, 48 h
The source made the active and inactive calls. Rule as the data show it: active = GI50 up to about 1.1 µM and inactive = higher.
Examples of compounds with documented GI50 follow.

1. CCN(CC)C(=O)c1cccc2c(OC)ccc(OC)c12 = > 100 µM (inactive)
2. CCOC(=O)C(=Cc1cc(OC)ccc1OC)C(=O)OCC = 14.4 µM (inactive)
3. COc1ccc2c(O)c3[n+](cc2c1OC)CCc1cc2c(cc1-3)OCO2 = 41.8 µM (inactive)

(Q) # query: GI50 of entry O=CNNC(=O)Nc1cccc2ccccc12
(A) > 100 µM (inactive)

----------
GI50 reference
tested on: LOX IMVI; assay: NCI tumour cell line growth inhibition, 48 h
The source made the active and inactive calls. Cut-off read from the data, not from the text of the source: active = GI50 up to about 1.1 µM and inactive = higher.

1) COc1ccc(C2CC(c3cc4c(C)c(C(=O)c5ccccc5)oc4cc3O)=Nc3ccccc3S2)cc1OC (configuration not stated) = > 100 µM (inactive)
2) CN1CCN(c2ccc3nc(C4=C(O)C(=O)[C@@H]5C(=C4O)N=C(CO)N5C)[nH]c3n2)CC1 = 73.1 µM (inactive)
3) CC1(C)CCCC2(C)C3=C(CCC12)C(=O)OC3 (configuration not stated) = > 100 µM (inactive)

(Q) Value lookup for GI50; key = O[C@H]1[C@H]2[C@H](O)CCCN2C[C@H]1O [TRIDOLGOSIR]
(A) > 100 µM (inactive)

(Q) Check COC(=O)[C@@](C)(COC(=O)C(C)(C)C)NC(=O)OC(C)(C)C too.
(A) > 100 µM (inactive)

(Q) Likewise for CCOc1ccc(NC(=O)CC2SC(Nc3ccc(C)cc3)=NC2=O)cc1 (configuration not stated) ?
(A) > 100 µM (inactive)

(Q) Item: C1CSCCSCCSCCSC1
(A) > 100 µM (inactive)

(Q) Same read-out for CN1c2ccc(O)c(O)c2-c2cc(O)cc3c2C1CCC3 (configuration not stated) ?
(A) 11.2 µM (inactive)
